Data origin, for the record: PubChem BioAssay (NCI)

Recorded TGI for the following molecules
System: HL-60(TB) leukemia
Test: NCI tumour cell line growth inhibition, 48 h

{"MOLECULE": "CCC(=O)c1ccc2c(c1)N(CCCN1CCN(CCO)CC1)c1ccccc1S2", "STUDY SYSTEM": "HL-60(TB) leukemia", "TGI": "30.3 µM"}
{"MOLECULE": "Cc1cn2c(=O)n(c1=O)Cc1ccccc1C2", "STUDY SYSTEM": "HL-60(TB) leukemia", "TGI": "> 100 µM"}
{"MOLECULE": "CCOC(=O)C1=C(c2ccccc2)N(c2ccc(OC)cc2)[C@]2(C#N)C(O)=C(Cl)C(Cl)=C(O)[C@]12C#N", "STUDY SYSTEM": "HL-60(TB) leukemia", "TGI": "50.1 µM"}
{"MOLECULE": "O=[N+]([O-])c1ccc(N=Nc2c(O)[nH]c3ccccc23)cc1", "STUDY SYSTEM": "HL-60(TB) leukemia", "TGI": "> 77.8 µM"}

Data request: For the molecule O=C(NC1(C(=O)O)CC1c1ccccc1)c1ccccc1 (configuration not stated) , give its reported TGI.
Data returned: > 100 µM

Data request: For the molecule CC(=O)OCC1OC(c2nnc(C)o2)=CC(OC(C)=O)C1OC(C)=O (configuration not stated) , give its reported TGI.
Data returned: > 100 µM

Data request: For the molecule "Cc1cc(N=C2C=C(Nc3cc(C)on3)C(=O)c3ccccc32)no1" , give its reported TGI.
Data returned: > 100 µM

Data request: For the molecule Nc1nc2cc(CNc3ccc(C(=O)NC(CCC(=O)O)C(=O)O)cc3)ccc2nc1-c1ccccc1 (configuration not stated) , give its reported TGI.
Data returned: > 10 µM

Data request: For the molecule N#C[C@H]1Nc2ccccc2[C@@H](O)C1O (some centres not stated) , give its reported TGI.
Data returned: > 100 µM

Data request: For the molecule "O=C(O)C1SCCS1" , give its reported TGI.
Data returned: > 100 µM

Data request: For the molecule "COc1ccc(-c2nc3sc4c(c3c(=O)[nH]2)CCCC4)c2ccccc12" , give its reported TGI.
Data returned: 2.04 µM

Data request: For the molecule "O=C(/C=C\c1ccc2ccccc2n1)c1cc(Cl)ccc1O" , give its reported TGI.
Data returned: 11.3 µM

----------
Tested on: HOP-62 NSCLC
Experiment: NCI tumour cell line growth inhibition, 48 h; in the data active = GI50 below about 0.43 µM; inactive = the rest
Your answer must be one of the following: class 1 for active, class 0 for inactive

{"COMPOUND": "N=C(N)c1ccc(-c2ccc(-c3ccc(F)cc3)o2)o1", "ASSIGNED CATEGORY": "class 0"}
{"COMPOUND": "O=C1OCC2=C1C(c1cccc(C(F)(F)F)c1)c1cc3c(cc1N2CCO)CCC3 (centres undefined)", "ASSIGNED CATEGORY": "class 1"}
{"COMPOUND": "COc1cc2c3c(n(CCCNCCNCCCN)c(=O)c2cc1OC)-c1cc2c(cc1C3=O)OCO2", "ASSIGNED CATEGORY": "class 0"}

Data request: Record lookup: outcome of this test for "Oc1ccc(CN(Cc2ccc(C(F)(F)F)cc2)Cc2ccc(O)c3ncccc23)c2cccnc12" ?
Data returned: class 1

Data request: Record lookup: outcome of this test for "COc1cc(-c2n/c(=C\c3c(O)[nH]c4ccccc34)cc3c2=Nc2ccccc2-3)cc(OC)c1OC" ?
Data returned: class 0

Data request: Record lookup: outcome of this test for "Cc1ccc(C[P+](c2ccccc2)(c2ccccc2)c2ccccc2)cc1" ?
Data returned: class 0

Data request: Record lookup: outcome of this test for "Nc1ccc(-n2c(=O)oc3ccc(Cl)cc3c2=O)c(Cl)c1" ?
Data returned: class 1

Data request: Record lookup: outcome of this test for "Cc1cc(C)c2c(N)c3cccc(C)c3nc2n1" ?
Data returned: class 0

Data request: Record lookup: outcome of this test for C=C1C(=O)O[C@H]2C[C@@H]1CCC1(C)OC1CC/C(C)=C/CC[C@H]2C (some centres undefined) ?
Data returned: class 0

Data request: Record lookup: outcome of this test for "CCC[CH2][Sn]1([CH2]CCC)[O]C(=O)CN=Cc2ccccc2[O]1" ?
Data returned: class 0

Data request: Record lookup: outcome of this test for Cc1ccc2[nH]c(C(=O)NN3C(=O)C(C)SC34CCCCC4C)c(-c3ccccc3)c2c1 (centres undefined) ?
Data returned: class 0

Data request: Record lookup: outcome of this test for "COc1ccc2c(c1)C(=O)c1c-2n(CCCN2CCOCC2)c(=O)c2cc([N+](=O)[O-])ccc12" ?
Data returned: class 1

Data request: Record lookup: outcome of this test for "COc1ccc2[nH]cc(-c3nc(-c4c[nH]c5ccncc45)cs3)c2c1" ?
Data returned: class 0

Data request: Record lookup: outcome of this test for "COc1ccc(-c2nc3sc4c(c3c(=O)[nH]2)CCCC4)c2ccccc12" ?
Data returned: class 0

----------
Tested on: SK-OV-3 ovarian
Test: NCI tumour cell line growth inhibition, 48 h
METRIC NAME: GI50

{"SMILES DATA": "COc1ccc(-c2ccccc2)cc1-c1c(Nc2cc(Cl)cc(Cl)c2O)c(=O)c1=O", "GI50": "1.28 µM"}
{"SMILES DATA": "CCC[CH2][Sn]1([CH2]CCC)[O]C(=O)CN=Cc2ccccc2[O]1", "GI50": "0.922 µM"}
{"SMILES DATA": "COc1ccc(C2=C(c3cc(OC)c(OC)c(OC)c3)C(=O)OC2)cc1OC", "GI50": "8.27 µM"}

Turning now to a further compound:
Data request: For the compound "COc1cc2c(cc1OCCCN1CCN(c3cc(=O)oc4c(C)c(OC)ccc34)CC1)N=C[C@@H]1CCCN1C2=O" , give its reported GI50.
Data returned: 10.2 µM

----------
Tested on: SW-620 colon
Assay: NCI tumour cell line growth inhibition, 48 h
METRIC NAME: GI50

# annotated cases, reported GI50 shown
{"SMILES DATA": "COc1ccc(-c2csc3c2-n2cccc2C3=O)cc1O", "EXPERIMENTAL VALUE": "< 12.2 nM"}
{"SMILES DATA": "N=C(N)c1ccc(-c2ccc(-c3ccc(F)cc3)o2)o1", "EXPERIMENTAL VALUE": "943 nM"}

Turning now to a further compound:
Data request: For the compound "O=[N+]([O-])c1cccc(-c2cc(-c3cc(Br)ccc3O)[nH]n2)c1" , give its reported GI50.
Data returned: 2810 nM

----------
Test system: DU-145 prostate
Test: NCI tumour cell line growth inhibition, 48 h
METRIC NAME: TGI (µM)
The answer is to be given in µM; state only the numeric part.

{"MOLECULE": "CC1(C)Cc2c(Br)c(Br)c(Br)c(OCC(O)CN3CCOCC3)c2O1 (stereo unspecified)", "EXPERIMENTAL VALUE": 26.2}
{"MOLECULE": "CNCCOC(=O)/C=C1/CCC2C(C(O)CC3C(C)(C(=O)OC)CCCC23C)C1C (stereo unspecified)", "EXPERIMENTAL VALUE": 0.0305}

Turning now to a further molecule:
Data request: Determine reported TGI for "CCOC(=O)/C(=C\c1ccc(F)cc1)C(C)=O" ; test system: DU-145 prostate.
Data returned: 56.8

----------
Test system: MDA-MB-231 breast
Test: NCI tumour cell line growth inhibition, 48 h; in the data active = GI50 below about 0.43 µM; inactive = the rest
Your answer must be one of the following: 1 (yes) for active, 0 (no) for inactive

Solved entries:
{"SMILES DATA": "O=C(Nc1cccc(-n2ccc3c(NC(=O)c4ccccc4)nccc32)c1)c1cc(N2CCOCC2)cc(C(F)(F)F)c1", "ASSIGNED CATEGORY": "1 (yes)"}
{"SMILES DATA": "CCCCCCCCCCCCCCCCn1cc[n+](Cc2ccccc2)c1C", "ASSIGNED CATEGORY": "1 (yes)"}
{"SMILES DATA": "COc1cc2c(cc1OC)-c1c(c3ccc([N+](=O)[O-])cc3c(=O)n1CCCN)C2=O", "ASSIGNED CATEGORY": "0 (no)"}
{"SMILES DATA": "Nc1ccc(-n2c(=O)oc3ccc(Cl)cc3c2=O)c(Cl)c1", "ASSIGNED CATEGORY": "1 (yes)"}
{"SMILES DATA": "CCN1CCC(CC(=O)Nc2n[nH]c3nc(-c4cccs4)c(Br)cc23)CC1", "ASSIGNED CATEGORY": "0 (no)"}

Next compound, please.
Data request: Record lookup: outcome of this test for "CCC(=O)c1ccc2c(c1)N(CCCN1CCN(CCO)CC1)c1ccccc1S2" ?
Data returned: 0 (no)

----------
Test system: TK-10 renal
Test: NCI tumour cell line growth inhibition, 48 h
Recorded GI50 for the following compounds

# annotated cases, reported GI50 shown
{"COMPOUND": "C=C1C(=O)O[C@H]2C[C@@H]1CCC1(C)OC1CC/C(C)=C/CC[C@H]2C (stereo not given in full)", "GI50": "17.6 µM"}
{"COMPOUND": "COc1ccc(-n2c(C)nc3c(c(C)nn3-c3ccccc3)c2=O)cc1", "GI50": "9.02 µM"}
{"COMPOUND": "CN1C(=O)C(c2c[nH]c3ccccc23)=C(c2c(-c3c[nH]c4ccccc34)[nH]c3ccccc23)C1=O", "GI50": "1.66 µM"}
{"COMPOUND": "COc1ccc(-c2ccccc2)cc1-c1c(Nc2cc(Cl)cc(Cl)c2O)c(=O)c1=O", "GI50": "2.84 µM"}

Turning now to a further compound:
Data request: For the compound "COC(=O)[C@@H]1CCCN1C(=O)[C@H]1CCCN1C(=O)[C@@H](Cc1c[nH]c2ccccc12)NC(=S)Nc1cc(C(F)(F)F)cc(C(F)(F)F)c1" , give its reported GI50.
Data returned: 2.58 µM
